Target: T1, Rluc-ADGRG2-ΔGPS-β Y611A (mouse, UniProt Q8CJ12-3 38-995, Y611A)
T1 construct: ADGRG2 (GPR64), mouse, ADGRG2-ΔGPS-β: the entire ECD removed; source: HEK293, transfected, on cells; not shown: Rluc, N-terminal, kept
T1 sequence (Q8CJ12 other isoform, or with tags, fused parts or gaps Y611A | Y611A | Y611A Y611A): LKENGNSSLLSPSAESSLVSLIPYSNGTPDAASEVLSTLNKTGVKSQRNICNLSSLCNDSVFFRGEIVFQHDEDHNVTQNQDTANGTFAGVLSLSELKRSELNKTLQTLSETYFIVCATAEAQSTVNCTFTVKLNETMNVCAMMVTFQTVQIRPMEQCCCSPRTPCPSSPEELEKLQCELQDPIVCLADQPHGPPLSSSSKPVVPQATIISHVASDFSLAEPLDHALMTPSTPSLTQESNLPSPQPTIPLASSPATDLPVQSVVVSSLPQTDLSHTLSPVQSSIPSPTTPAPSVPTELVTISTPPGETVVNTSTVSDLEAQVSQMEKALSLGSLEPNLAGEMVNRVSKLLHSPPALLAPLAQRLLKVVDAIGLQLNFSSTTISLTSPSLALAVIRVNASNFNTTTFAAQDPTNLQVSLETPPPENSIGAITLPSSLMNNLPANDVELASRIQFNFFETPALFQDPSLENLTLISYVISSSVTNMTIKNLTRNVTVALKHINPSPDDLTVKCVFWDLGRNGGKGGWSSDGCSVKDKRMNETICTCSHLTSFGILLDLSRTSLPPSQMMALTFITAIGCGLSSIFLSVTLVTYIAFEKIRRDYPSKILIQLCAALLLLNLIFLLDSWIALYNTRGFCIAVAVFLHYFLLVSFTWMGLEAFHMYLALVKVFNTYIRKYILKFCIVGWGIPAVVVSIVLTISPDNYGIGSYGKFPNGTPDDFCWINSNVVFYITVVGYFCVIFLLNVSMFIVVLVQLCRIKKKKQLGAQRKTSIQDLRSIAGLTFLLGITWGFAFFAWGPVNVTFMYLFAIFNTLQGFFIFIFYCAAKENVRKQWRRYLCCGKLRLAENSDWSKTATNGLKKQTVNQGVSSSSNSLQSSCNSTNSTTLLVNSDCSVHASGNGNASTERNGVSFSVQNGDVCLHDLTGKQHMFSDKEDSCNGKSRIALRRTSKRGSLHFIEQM
Test: FRET or BRET; HEK293 cells transfected with Rluc-ADGRG2-ΔGPS-β WT or mutants, stimulated by increasing concentrations of FITC-conjugated VPM-p15; saturation curves fitted with GraphPad; each experiment repeated 6 times
Conditions: one partner purified
Non-standard residues stand in square brackets, D forms with d. Primed or numbered codes have the meaning given here. No end group written: not given here. Phe(4-Me) = Cc1ccc(C[C@H](N)C(=O)O)cc1; FITC′ = not defined here
value-type: pEC50
# reply with the number alone; pEC50 is -log10 of concentration in mol/L

Sure, the documented pEC50 for VS[Phe(4-Me)]GILLDLSRTSLP-{FITC′} [FITC-conjugated VPM-p15 (ADGRG2 Stachel peptide p15 T1V/F3Phe(4-Me))] is 6.15

Attribution: paper PMC7948503
